Sourced from PubChem BioAssay AID1159580

- PROTOCOL_NOTES: chemical genetic growth profiling, strain panel (AID 1159580);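 also: tested at 20 µM; growth read once vehicle control cultures reached saturation at 30 °C; 1 = growth at the plate median or of vehicle wells; lower values mean less growth of the strain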
- MEASUREMENT_CONDITIONS: S. cerevisiae deletion strains, growth OD, locus YGR040W, strain KSS1, hits give low values
Among all 5,500 compounds or so, about 2,000 (36%) were called active. Not shown: some 18% with an inconclusive outcome. The list shows a part of the results.
PROPERTY_MEASURED: normalized growth
Just the number, please.

### Prompt Read the entry `CC1=CC(=O)C(CCOCCC2=CC(=O)C(C)=CC2=O)=CC1=O` and write its reported normalized growth.
### Response 0.739

### Prompt Complete the entry with normalized growth for `Cn1cncc1S(=O)(=O)/C(C#N)=C/c1ccccc1Sc1ccc(Cl)cc1`
### Response 0.752

### Prompt Check the records and state normalized growth for `N#C/C(=C\c1ccccc1Sc1ccc(Cl)cc1)S(=O)(=O)c1ccccn1`
### Response 0.871

### Prompt In one line, give reported normalized growth of the entry `Cc1c(Cl)cccc1NC(=S)N1CCCN(c2nc3ccc(Cl)cc3s2)CC1` .
### Response 0.937

### Prompt Query normalized growth for `Cn1c([N+](=O)[O-])cnc1/C=C(\C#N)C(=O)Nc1ccc(F)cc1`
### Response 0.139

### Prompt Answer with the recorded normalized growth of `CC(C)(C)C1=NN(c2nc3ccc(Cl)cc3s2)C(=O)C1` only.
### Response 0.121

### Prompt Consider the compound `COc1ccc(NC(=O)O/N=C(/N)c2ccc(Oc3c(Cl)cncc3Cl)cc2)cc1` . State its measured normalized growth.
### Response 0.751

### Prompt Provide only the value of recorded normalized growth for `O=C(NCc1ccco1)c1ccc(Oc2cc(Cl)cc(Cl)c2)o1`
### Response 0.948

### Prompt Quick one: give measured normalized growth for `O=C(Nc1cc(Cl)cc(Cl)c1)Nc1cc(-c2cccs2)[nH]n1`
### Response 0.816

### Prompt Please indicate normalized growth recorded for `Cc1c(Cl)cccc1NC(=S)N1CCCN(c2ccc(C(F)(F)F)cc2[N+](=O)[O-])CC1`
### Response 0.98

* * *

- PROTOCOL_NOTES: chemical genetic growth profiling, strain panel (AID 1159580);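 also: tested at 20 µM; growth read once vehicle control cultures reached saturation at 30 °C; 1 = growth at the plate median or of vehicle wells; lower values mean less growth of the strain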
- MEASUREMENT_CONDITIONS: S. cerevisiae deletion strains, growth OD, locus YDL040C, strain nat1, hits give low values
Out of some 5,500 compounds screened, about 2,000 (36%) were called active. Another 18% or so got no clear call; they are omitted. The list shows a part of the results.
PROPERTY_MEASURED: normalized growth
Lab note: jot down the number only; don't add units.

### Prompt For the compound `C[N+](C)(C)CC(=O)[O-]` , report normalized growth.
### Response 0.988

### Prompt Provide measured normalized growth value, entry: CC(=O)O[C@H]1C(=O)[C@@]2(C)C([C@H](OC(=O)c3ccccc3)[C@]3(O)C[C@H](OC(=O)[C@H](O)[C@@H](NC(=O)c4ccccc4)c4ccccc4)C(C)=C1C3(C)C)[C@]1(OC(C)=O)CO[C@@H]1C[C@@H]2O (stereo partly drawn)
### Response 1

### Prompt For the compound CNC1(C)C2CCC(C2)C1(C)C (stereo not drawn) , report normalized growth.
### Response 0.997

### Prompt Quick one: give measured normalized growth for CCC1(C)CC(=O)NC1=O (stereo not drawn)
### Response 0.995

### Prompt # return recorded normalized growth for entry `c1ccc(CN(CC2=NCCN2)c2ccccc2)cc1`
### Response 1.02

### Prompt For the compound `Cc1cc(OC(=O)N2CCCCC2)c(C(C)C)cc1[N+](C)(C)C` , give its measured normalized growth value.
### Response 1.01

### Prompt # return recorded normalized growth for input COc1cccc2c1CCC1CC(=O)CCC21C (stereo not drawn)
### Response 0.992

### Prompt Using the record for `NC(N)=Nc1nc(CSCCC(N)=NS(N)(=O)=O)cs1` , state its measured normalized growth.
### Response 0.969

### Prompt Please list normalized growth recorded for the compound `O=C(/C=C/c1ccccc1)O[C@H]1C[C@@H](O)[C@]2(O)C=CO[C@@H](O[C@@H]3O[C@H](CO)[C@@H](O)[C@H](O)[C@H]3O)[C@H]12`
### Response 1.03

### Prompt Determine from records and report normalized growth for `c1ccc(CC2=NCCN2)cc1`
### Response 1

### Prompt Identify the reported normalized growth for the following entry. `COc1ccc2c(c1)[C@@]1(C)CCC(=O)C[C@H]1CC2`
### Response 0.969

### Prompt # return recorded normalized growth for input CCC1(c2ccc(N)cc2)CCC(=O)NC1=O (stereo not drawn)
### Response 0.978

### Prompt Consider the compound COc1ccc2c(c1)C1(C)CCC(=O)CC1CC2 (stereo not drawn) and give its recorded normalized growth.
### Response 0.999

### Prompt Answer with the recorded normalized growth of C=C1CC[C@H](O)C/C1=C/C=C1\CCC[C@]2(C)C([C@H](C)/C=C/[C@H](C)C(C)C)CC[C@@H]12 (stereo partly drawn) only.
### Response 1.02

### Prompt Supply reported normalized growth belonging to this compound: `Cc1c(N(C)C)c(=O)n(-c2ccccc2)n1C`
### Response 0.991

### Prompt Annotate the compound `CC(C)[C@H](N)C(=O)OCCOCn1cnc2c(=O)[nH]c(N)nc21` with its measured normalized growth.
### Response 0.998

### Prompt Look up and report measured normalized growth for this entry: `Cc1ccc2c(c1)CC[C@H]1CC(=O)CC[C@]21C`
### Response 1

### Prompt Indicate its recorded normalized growth; the compound in question is `N#Cc1c(Cl)c(Cl)c(Cl)c(C#N)c1Cl`
### Response 0.0666

### Prompt Tell me normalized growth reported for `CCC1(c2ccccc2)C(=O)NCNC1=O`
### Response 1.01

### Prompt State its normalized growth: `C[CH2][Hg][S]c1ccccc1C(=O)O`
### Response 0.0559

### Prompt In one line, give reported normalized growth of the entry `COc1cc(O)c(C(=O)c2ccccc2)cc1O` .
### Response 1

### Prompt Provide only the value of recorded normalized growth for `CC(C)[N+](C)(CCOC(=O)C1c2ccccc2Oc2ccccc21)C(C)C`
### Response 0.996

### Prompt Consider the compound `O=c1ccc2cc(O)c(O)cc2o1` and give its recorded normalized growth.
### Response 1.02
